Test: IVIVE: steady-state concentration (Css), generic HTTK model
Design: species or system human
Conditions: QL 1500000 uL/min
The reader will find reported CLhep values listed item by item below.
metric.name: CLhep (L/h)

* O=C(O)C(F)(F)C(F)(F)C(F)(F)C(F)(F)C(F)(F)C(F)(F)C(F)(F)C(F)(F)F | 0.000
* O=C(O)C(F)(F)C(F)(F)C(F)(F)OC(F)(C(F)(F)F)C(F)(F)F | 0.232
* O=C(O)C(F)(F)C(F)(F)C(F)(F)OC(F)(F)F | 0.335
* O=S(=O)(O)C(F)(F)C(F)(F)C(F)(F)C(F)(F)C(F)(F)C(F)(F)F | 0.000
* O=C(O)C(F)(F)C(F)(F)C(F)(F)C(F)(F)C(F)(F)C(F)(F)C(F)(F)C(F)(F)C(F)(F)C(F)(F)C(F)(F)C(F)(F)C(F)(F)F | 0.000
* O=C(Cl)C(F)(F)C(F)(F)C(F)(F)C(F)(F)C(F)(F)C(F)(F)F [Perfluoroheptanoyl chloride (PFHpA-Cl)] | 0.000
* O=C(O)CCC(F)(C(F)(F)F)C(F)(F)F | 0.000
* O=S(=O)(O)C(F)(F)C(F)(F)OC(F)(F)C(F)(F)F | 0.158
